Origin of measurements: ChEMBL document CHEMBL1142793

TEST_SYSTEM: Melanin-concentrating hormone receptor 1 (Homo sapiens, UniProt Q99705)
Sequence (Q99705 whole entry): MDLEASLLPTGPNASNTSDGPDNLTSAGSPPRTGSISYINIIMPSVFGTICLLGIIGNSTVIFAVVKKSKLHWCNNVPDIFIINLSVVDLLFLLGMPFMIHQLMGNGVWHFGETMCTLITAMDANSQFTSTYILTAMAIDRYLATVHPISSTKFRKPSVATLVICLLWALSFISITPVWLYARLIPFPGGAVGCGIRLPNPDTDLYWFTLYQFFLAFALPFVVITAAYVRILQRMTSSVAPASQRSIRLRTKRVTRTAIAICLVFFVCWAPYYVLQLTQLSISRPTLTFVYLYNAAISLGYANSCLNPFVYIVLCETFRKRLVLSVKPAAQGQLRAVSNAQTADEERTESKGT
EXPERIMENTAL_DETAILS: Inhibitory activity against human CA-MCH-R1 (Melanin-concentrating hormone receptor 1) by using [125I](Phe13,Tyr19)MCH as radioligand expressed in HEK293 cells
The entries below come with measured pIC50 values attached.
The value called pIC50 is obtained by taking minus log10 of the concentration in mol/L.

Exam item: Field request: pIC50 | item: "CN(C)c1nc(NC2CCN(S(=O)(=O)c3ccc(Br)cc3OC(F)(F)F)CC2)nc2ccccc12"
Marked response: 6.60

Exam item: Tell me the measured pIC50 of "CN(C)c1nc(N[C@H]2CC[C@@H](NC(=O)c3ccc(F)cc3)CC2)nc2ccccc12" , please.
Marked response: 8.03

Exam item: Data request, read-out pIC50, for CN(C)c1nc(NC2CCC(CNC(=O)c3ccc(Br)cc3OC(F)(F)F)CC2)nc2ccccc12 (cis isomer)
Marked response: 7.10

Exam item: What does the data say about its pIC50? Entry: CN(C)c1nc(NCC2CCC(CNCc3ccc(Br)cc3OC(F)(F)F)CC2)nc2ccccc12 (stereo not drawn)
Marked response: 6.02

Exam item: Return reported pIC50; argument: "CN(C)c1nc(N[C@H]2CC[C@@H](NC(=O)c3cccc(C(F)(F)F)c3)CC2)nc2ccccc12"
Marked response: 7.82

Exam item: I have this molecule here, CN(C)c1nc(NCC2CCC(CNC(=O)c3ccc(Br)cc3OC(F)(F)F)CC2)nc2ccccc12 (stereo not drawn) , and I need its recorded pIC50.
Marked response: 5.82
